Values from ChEMBL document CHEMBL4513216

Entries and their measured INHIBITION follow.
Test system: Plasmodium falciparum
method-notes: Screen against P. falciparum Asexual Blood Stage (ABS), at 5uM
Type: functional, Dd2
conditions-used: tested at 5 uM
Out of some 65,000 compounds screened, about 2,100 (3.2%) showed an effect of 50% or more. The median lay at about -52%. This excerpt belongs to a sample that is enriched for strong results.
Your answer should be a number followed by the unit of measure.

1. Cc1ccc(CN2C[C@@H]3COC[C@]3(COc3ccc(C#N)cn3)C2)o1 | -45.3%
2. N#Cc1cccc(C(=O)N2CCN(c3ncccn3)CC2)c1 | -150%
3. Cc1ccccc1-c1cc(C(=O)N2CCCC(n3ccnc3C)C2)[nH]n1 (centres undefined) | -29.5%
4. CCN1CC(C)(C)CN(C(=O)CCc2ccccc2)CC1=O | -37%
5. Cc1nn(CC(F)F)c2c1c(C(F)F)cc(=O)n2CC(=O)O | -111.45%

For the compound shown here, CN1CCC2(CC1)CC(NC(=O)c1csnn1)c1ccccc1O2 (centres undefined) , give the reported INHIBITION.
-8.75%

For the compound shown here, COCC(NC(=O)c1cn(-c2cccc(Cl)c2F)nn1)C1CC1 (centres undefined) , give the reported INHIBITION.
-24.2%

For the compound shown here, Cc1noc(C)c1CN1Cc2ccnn2CC(C(=O)NCC2CC2)C1 (centres undefined) , give the reported INHIBITION.
-30.3%

For the compound shown here, `Cc1cc(C)c(Cn2cncn2)cc1CN1CC[C@@H]2CC[C@H](C1)N2` , give the reported INHIBITION.
13.3%

For the compound shown here, `CO[C@H]1CN(Cc2cc(Cn3cncn3)c(C)cc2C)CC[C@H]1N` , give the reported INHIBITION.
-28.2%

For the compound shown here, `Cc1noc(-c2ccnc(Oc3ccc(CN4CCCC4)cc3F)c2)n1` , give the reported INHIBITION.
-38.8%

For the compound shown here, `CC(C)(O)CN1CCN(C(=O)c2cccc3cccnc23)CC1` , give the reported INHIBITION.
24.5%

For the compound shown here, CCOC1COC2(CCN(c3ccccn3)CC2)C1 (centres undefined) , give the reported INHIBITION.
-0.961%

For the compound shown here, `c1nc(NCc2cc3n(n2)CCN(C2CCCCC2)C3)c2nc[nH]c2n1` , give the reported INHIBITION.
-10.3%

For the compound shown here, `CC(C)n1nc2c(cc1=O)CN(c1ncnc3ccsc13)CC2` , give the reported INHIBITION.
-31%

For the compound shown here, `O=C(NCc1cc(=O)n2c(n1)CN(CC1CC1)CCC2)c1ccsc1` , give the reported INHIBITION.
-69.7%

* * *

Entries and their measured INHIBITION follow.
System: Plasmodium falciparum
method-notes: Screen against P. falciparum Asexual Blood Stage (ABS), at 5uM
Assay type: functional, Dd2
conditions-used: tested at 5 uM
About 2,100 (3.2%) of roughly 65,000 compounds showed an effect of 50% or more. The median lay at about -52%. The entries come from a sample that favours strong results as a whole.
Note: unit % is implicit; provide only the numeric part.

1. COc1ccc(CN2CCC(O)(CN3CCCCC3)C2)c(C)c1 (centres undefined) | 67.6
2. COCC(=O)N1CCC2(CCCN(Cc3cc(OC)ccc3F)C2)C1 (centres undefined) | -70
3. O=C(CSC1=NS(=O)(=O)c2cc(F)ccc2N1)Nc1ccc(Cl)c(Cl)c1 | -21.5
4. COC(=O)c1ccc(N2CCN(C(=O)c3cccnc3)C(C)C2)cc1 (centres undefined) | -5.1
5. CNC(=O)c1nc(CN2CCOC(Cc3ccc(F)cc3)C2)no1 (centres undefined) | 51.7
6. Cc1ccccc1CN1C[C@@H](CN(C)CCO)[C@@H](CO)C1 | 7.46

Please look at the following molecule next.
For the molecule shown here, CCc1cc(C(=O)N2CCCC(Cc3ccc(NC)nn3)C2)on1 (centres undefined) , give the reported INHIBITION.
-89.6
